FYI, the data here is from patent US12528814B2.

Please provide measured pIC50 for the entries that follow.
target: IRAK4 (Homo sapiens (Human), UniProt Q9NWZ3); experiment: IRAK4 Biochemical HTRF Kinase Assay; conditions: Table 4; read-out: IRAK4 HTRF biochemical: IC50
Sequence (Q9NWZ3 whole entry, species assumed): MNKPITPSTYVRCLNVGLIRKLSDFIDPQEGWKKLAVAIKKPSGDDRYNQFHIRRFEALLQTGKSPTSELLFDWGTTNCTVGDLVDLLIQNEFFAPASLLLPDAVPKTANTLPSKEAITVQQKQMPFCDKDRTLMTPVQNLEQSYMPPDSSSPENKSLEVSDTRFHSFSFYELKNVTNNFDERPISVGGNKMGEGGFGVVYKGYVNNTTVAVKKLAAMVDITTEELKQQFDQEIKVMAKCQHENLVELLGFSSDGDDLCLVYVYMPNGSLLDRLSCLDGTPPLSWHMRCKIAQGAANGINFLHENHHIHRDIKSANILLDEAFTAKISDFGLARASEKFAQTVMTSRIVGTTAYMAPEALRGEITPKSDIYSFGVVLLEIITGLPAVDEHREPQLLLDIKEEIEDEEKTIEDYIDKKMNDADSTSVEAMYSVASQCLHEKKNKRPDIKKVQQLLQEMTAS
One number for each entry, as −log10 of the molar value.

compound	pIC50
CC(C)Nc1cc(-c2ccc3cc(C#N)cnn23)ncc1-c1nnc(N2CCN(C(=O)CNc3cccc4c3C(=O)N(C3CCC(=O)NC3=O)C4=O)CC2)s1 (centres unmarked)	8.74
CC(C)Nc1cc(-c2ccc3cc(C#N)cnn23)ncc1-c1nnc(N2CCN(C(=O)CCCCCNc3ccc4c(c3)C(=O)N(C3CCC(=O)NC3=O)C4=O)CC2)s1 (centres unmarked)	8.59
CC(C)Nc1cc(-c2ccc3cc(C#N)cnn23)ncc1-c1nnc(N2CCN(C(=O)CCCCCCCNc3ccc4c(c3)C(=O)N(C3CCC(=O)NC3=O)C4=O)CC2)s1 (centres unmarked)	8.42
CNc1cc(-c2ccc3cc(C#N)cnn23)ncc1-c1nnc([C@H]2CC[C@H](NC(=O)CN3CCC4(CC3)CN(c3ccc5c(c3)C(=O)N(C3CCC(=O)NC3=O)C5=O)C4)CC2)s1 (some centres unmarked)	9.05

Proceed to the following item.
Request: Look up pIC50: CC(C)Nc1cc(-c2ccc3cc(C#N)cnn23)ncc1-c1nnc(N2CCN(CCCCc3ccc4c(c3)CN(C3CCC(=O)NC3=O)C4=O)CC2)s1 (centres unmarked)
Result: 9.05

* * *

biological target: IRAK4 (Homo sapiens (Human), UniProt Q9NWZ3); experiment: IRAK4 Biochemical HTRF Kinase Assay; conditions: Table 5; multiple runs; read-out: IRAK4 HTRF biochemical: IC50
Threshold-based label: IC50 under 2 nM gives True, IC50 not under 2 nM gives False.

Known results for molecules:
molecule	category
CNc1cc(-c2ccc3cc(C#N)cnn23)ncc1-c1nnc(C23CCC(NC(=O)[C@H]4C[C@@H](OCCNc5cccc6c5C(=O)N(C5CCC(=O)NC5=O)C6=O)C4)(CC2)CC3)s1 (stereo partly shown)	True
CC(C)Nc1cc(-c2ccc3cc(C#N)cnn23)ncc1-c1nnc(N2CCN(CC3CCN(c4ccc5c(=O)n(C6CCC(=O)NC6=O)ccc5c4)CC3)CC2)s1 (stereo not shown)	False
CNc1cc(-c2ccc3cc(C#N)cnn23)ncc1-c1nnc([C@H]2CC[C@H](N(C)C(=O)CCC(=O)N[C@H](C(=O)N3C[C@H](O)C[C@H]3C(=O)N[C@@H](C)c3ccccc3)C(C)(C)C)CC2)s1	True
CNc1cc(-c2ccc3cc(C#N)cnn23)ncc1-c1nnc(N2CCC(C3CCN(C(=O)CN4CCN(c5ccc6c(c5)C(=O)N(C5CCC(=O)NC5=O)C6=O)CC4)CC3)CC2)s1 (stereo not shown)	True
CC(C)Nc1cc(-c2ccc3cc(C#N)cnn23)ncc1-c1nnc(N2CCN(C3CCN(C(=O)Cc4cccc5c4CN(C4CCC(=O)NC4=O)C5=O)CC3)CC2)s1 (stereo not shown)	True

Request: Field: below-cutoff. Rule: recorded IC50 strictly less than 2 nM. Subject: CC(C)Nc1cc(-c2ccc3cc(C#N)cnn23)ncc1-c1nnc(N2CCN(C(=O)CCCCCCCNc3ccc4c(c3)C(=O)N(C3CCC(=O)NC3=O)C4=O)CC2)s1 (stereo not shown)
Result: False

Request: Field: below-cutoff. Rule: recorded IC50 strictly less than 2 nM. Subject: CNc1cc(-c2ccc3cc(C#N)cnn23)ncc1-c1nnc(N2CCC(NC(=O)C[C@H](NC(=O)[C@@H]3C[C@@H](O)CN3C(=O)[C@@H](NC(=O)C3(F)CC3)C(C)(C)C)c3ccc(-c4scnc4C)cc3)CC2)s1
Result: False

Request: Field: below-cutoff. Rule: recorded IC50 strictly less than 2 nM. Subject: CC(C)Nc1cc(-c2ccc3cc(C#N)cnn23)ncc1-c1nnc(N2CCN(C(=O)C3CCN(CC4CCN(c5ccc6c(=O)n(C7CCC(=O)NC7=O)ccc6c5)CC4)CC3)CC2)s1 (stereo not shown)
Result: True

Request: Field: below-cutoff. Rule: recorded IC50 strictly less than 2 nM. Subject: CNc1cc(-c2ccc3cc(C#N)cnn23)ncc1-c1nnc(C23CCC(NC(=O)C4CCN(c5ccc6c(c5)C(=O)N(C5CCC(=O)NC5=O)C6=O)CC4)(CC2)CC3)s1 (stereo not shown)
Result: True

* * *

target: IRAK4 (Homo sapiens (Human), UniProt Q9NWZ3); assay: IRAK4 Degradation HiBiT Assay; conditions: Jurkat, read-out: Cellular IRAK4 HiBiT: Dmax, Table 4; HiBiT-tagged Jurkat cells, 4 hrs
Sequence (Q9NWZ3 whole entry): as the sequence (Q9NWZ3 whole entry, species assumed) above
The threshold is inclusive: Dmax of exactly 80% counts as Satisfied; values below receive Not satisfied.

compound	system tested	category
CNc1cc(-c2ccc3cc(C#N)cnn23)ncc1-c1nnc([C@H]2CC[C@H](NC(=O)CCCC(=O)N[C@H](C(=O)N3C[C@H](O)C[C@H]3C(=O)NCc3ccc(-c4scnc4C)cc3)C(C)(C)C)CC2)s1	IRAK4 (Homo sapiens (Human), UniProt Q9NWZ3)	Satisfied
CNc1cc(-c2ccc3cc(C#N)cnn23)ncc1-c1nnc([C@H]2CC[C@H](NC(=O)CCC(=O)N[C@H](C(=O)N3C[C@H](O)C[C@H]3C(=O)N[C@@H](C)c3ccc(-c4scnc4C)cc3)C(C)(C)C)CC2)s1	IRAK4 (Homo sapiens (Human), UniProt Q9NWZ3)	Satisfied
CC(C)Nc1cc(-c2ccc3cc(C#N)cnn23)ncc1-c1nnc(N2CCN(C(=O)CCCCCCCNc3ccc4c(c3)C(=O)N(C3CCC(=O)NC3=O)C4=O)CC2)s1 (stereo not shown)	IRAK4 (Homo sapiens (Human), UniProt Q9NWZ3)	Not satisfied
CC(C)Nc1cc(-c2ccc3cc(C#N)cnn23)ncc1-c1nnc(N2CCN(C(=O)C3CCN(CC4CCN(c5ccc(-c6nn(C7CCC(=O)NC7=O)c(=O)n6C)cc5)CC4)CC3)CC2)s1 (stereo not shown)	IRAK4 (Homo sapiens (Human), UniProt Q9NWZ3)	Satisfied
Cc1ncsc1-c1ccc(CNC(=O)[C@@H]2C[C@@H](O)CN2C(=O)[C@@H](NC(=O)C2(F)CC2)C(C)(C)C)c(OCCOCCC(=O)N2CCN(c3nnc(-c4cnc(-c5ccc6cc(C#N)cnn56)cc4NC(C)C)s3)CC2)c1	IRAK4 (Homo sapiens (Human), UniProt Q9NWZ3)	Satisfied
CC(C)Nc1cc(-c2ccc3cc(C#N)cnn23)ncc1-c1nnc(N2CCN(CCCc3ccc4c(c3)CN(C3CCC(=O)NC3=O)C4=O)CC2)s1 (stereo not shown)	IRAK4 (Homo sapiens (Human), UniProt Q9NWZ3)	Not satisfied
CC(C)Nc1cc(-c2ccc3cc(C#N)cnn23)ncc1-c1nnc(N2CCC(NCC3CCN(c4ccc5c(c4)C(=O)N(C4CCC(=O)NC4=O)C5=O)CC3)CC2)s1 (stereo not shown)	IRAK4 (Homo sapiens (Human), UniProt Q9NWZ3)	Satisfied
CN[C@@H](C)C(=O)N[C@H](C(=O)N1C[C@@H](NC(=O)CCOCCC(=O)N2CCN(c3nnc(-c4cnc(-c5ccc6cc(C#N)cnn56)cc4NC(C)C)s3)CC2)C[C@H]1C(=O)N[C@@H]1CCCc2ccccc21)C1CCCCC1	IRAK4 (Homo sapiens (Human), UniProt Q9NWZ3)	Not satisfied

Request: I'd appreciate it if you could say whether CC(C)Nc1cc(-c2ccc3cc(C#N)cnn23)ncc1-c1nnc(N2CCN(C3CCN(Cc4ccc5c(c4)C(=O)N(C4CCC(=O)NC4=O)C5=O)CC3)CC2)s1 (stereo not shown) has Dmax at least equal to 80%.
Result: Satisfied

* * *

target: IRAK4 (Homo sapiens (Human)); assay: IRAK4 Degradation HiBiT Assay; conditions: read-out: Cellular IRAK4 HiBiT: DC50; Table 4; HiBiT-tagged Jurkat cells, 4 hrs
Please provide measured DC50 for the entries that follow.
Numbers only, in nM.

test smiles	unit abbrev	DC50
Cc1ncsc1-c1ccc([C@H](C)NC(=O)[C@@H]2C[C@@H](O)CN2C(=O)[C@@H](NC(=O)CCCCCCCC(=O)N2CCN(c3nnc(-c4cnc(-c5ccc6cc(C#N)cnn56)cc4NC(C)C)s3)CC2)C(C)(C)C)cc1	nM	315

Request: Look up DC50: Cc1ncsc1-c1ccc(CNC(=O)[C@@H]2C[C@@H](O)CN2C(=O)[C@@H](NC(=O)CCCC(=O)N2CCN(c3nnc(-c4cnc(-c5ccc6cc(C#N)cnn56)cc4NC(C)C)s3)CC2)C(C)(C)C)cc1
Result: 590

* * *

molecular target: IRAK4 (Homo sapiens (Human), UniProt Q9NWZ3); experiment: IRAK4 Degradation HiBiT Assay; details: Jurkat, read-out: Cellular IRAK4 HiBiT: Dmax, Table 5; multiple runs; HiBiT-tagged Jurkat cells, 4 hrs
Please provide measured Dmax for the entries that follow.
Give bare numbers, in %.

Use the examples below as a reference point.
compound	system tested	observed
CNc1cc(-c2ccc3cc(C#N)cnn23)ncc1-c1nnc([C@H]2CC[C@H](N(C)C(=O)CCN3CCN(c4ccc5c(c4)C(=O)N(C4CCC(=O)NC4=O)C5=O)CC3)CC2)s1 (stereo partly shown)	IRAK4 (Homo sapiens (Human), UniProt Q9NWZ3)	108
CNc1cc(-c2ccc3cc(C#N)cnn23)ncc1-c1nnc([C@H]2CC[C@H](NC(=O)CCCCC(=O)N[C@H](C(=O)N3C[C@H](O)C[C@H]3C(=O)N[C@@H](C)c3ccc(-c4scnc4C)cc3)C(C)(C)C)CC2)s1	IRAK4 (Homo sapiens (Human), UniProt Q9NWZ3)	114
CNc1cc(-c2ccc3cc(C#N)cnn23)ncc1-c1nnc([C@H]2CC[C@@H](NC(=O)CCOCCOCCOCCNc3cccc4c3C(=O)N(C3CCC(=O)NC3=O)C4=O)CC2)s1 (stereo partly shown)	IRAK4 (Homo sapiens (Human), UniProt Q9NWZ3)	20
CNc1cc(-c2ccc3cc(C#N)cnn23)ncc1-c1nnc([C@H]2CC[C@@H](NC(=O)[C@H]3C[C@@H](OCCNc4cccc5c4C(=O)N(C4CCC(=O)NC4=O)C5=O)C3)CC2)s1 (stereo partly shown)	IRAK4 (Homo sapiens (Human), UniProt Q9NWZ3)	76

Please state, for each entry, its recorded Dmax.
1. CN[C@@H](C)C(=O)N[C@H](C(=O)N1C[C@@H](NC(=O)CCCCCCC(=O)N2CCN(c3nnc(-c4cnc(-c5ccc6cc(C#N)cnn56)cc4NC(C)C)s3)CC2)C[C@H]1C(=O)N[C@@H]1CCCc2ccccc21)C1CCCCC1
2. CNc1cc(-c2ccc3cc(C#N)cnn23)ncc1-c1nnc([C@H]2CC[C@H](NC(=O)CCOCCOCCOCCNc3cccc4c3C(=O)N(C3CCC(=O)NC3=O)C4=O)CC2)s1 (stereo partly shown)

Result:
1: 70; 2: 100

Please state, for each entry, its recorded Dmax.
1. CNc1cc(-c2ccc3cc(C#N)cnn23)ncc1-c1nnc([C@H]2CC[C@H](N(C)CC3CCN(c4ccc5c(=O)n(C6CCC(=O)NC6=O)ccc5c4)CC3)CC2)s1 (stereo partly shown)
2. Cc1ncsc1-c1ccc(CNC(=O)[C@@H]2C[C@@H](O)CN2C(=O)[C@@H](NC(=O)C2(F)CC2)C(C)(C)C)c(OCC(=O)N2CCC(C(=O)N3CCN(c4nnc(-c5cnc(-c6ccc7cc(C#N)cnn67)cc5NC(C)C)s4)CC3)CC2)c1
3. CNc1cc(-c2ccc3cc(C#N)cnn23)ncc1-c1nnc(N2CCN(C(=O)N3CCN(Cc4ccc5c(c4)C(=O)N(C4CCC(=O)NC4=O)C5=O)CC3)CC2)s1 (stereo not shown)
4. CNc1cc(-c2ccc3cc(C#N)cnn23)ncc1-c1nnc(C23CCC(NC(=O)CCCCCNc4ccc5c(c4)C(=O)N(C4CCC(=O)NC4=O)C5=O)(CC2)CC3)s1 (stereo not shown)

Result:
103
115
109
70
